Recorded measurements of MCC at 72 h, one per entry
assay: Cytotoxicity against MDCK cells after 72 hrs by microscopic analysis; format: cell-based, Canis lupus familiaris; settings: dog
// return numeric value only (unit: µM, not printed)

COc1c(N[C@H]2C(=O)N[C@@H]3Cc4ccc(c(Cl)c4)Oc4cc5cc(c4O)Oc4ccc(cc4Cl)[C@@H](O)[C@@H]4NC(=O)[C@H](NC(=O)[C@@H]5NC(=O)[C@@H](NC3=O)c3cc(O)cc(c3)Oc3cc2ccc3O)c2ccc(O)c(c2)-c2c(O)cc(O)cc2[C@@H](C(=O)O)NC4=O)c(=O)c1=O    100

Query compound follows.
[ask] For the compound "COC(=O)[C@H]1NC(=O)[C@H]2NC(=O)[C@H](NC(=O)[C@@H]3NC(=O)[C@H]4NC(=O)[C@@H](Cc5ccc(c(Cl)c5)Oc5cc3cc(c5O)Oc3ccc(cc3Cl)[C@H]2O)NC(=O)[C@H](Nc2c(NCc3ccc(-c5ccccc5)cc3)c(=O)c2=O)c2ccc(O)c(c2)Oc2cc(O)cc4c2)c2ccc(O)c(c2)-c2c(O)cc(O)cc21" , give its reported MCC at 72 h.
[reply] 4

---

Recorded measurements of MCC at 72 h, one per entry
assay: Cytotoxicity against MDCK cells after 72 hrs by microscopic analysis; type: cell-based, Canis lupus familiaris; settings: dog

Worked cases, answers included:
COC(=O)[C@H]1NC(=O)[C@H]2NC(=O)[C@H](NC(=O)[C@@H]3NC(=O)[C@H]4NC(=O)[C@@H](Cc5ccc(c(Cl)c5)Oc5cc3cc(c5O)Oc3ccc(cc3Cl)[C@H]2O[C@@H]2O[C@H](CO)[C@@H](O)[C@H](O)[C@H]2NC(C)=O)NC(=O)[C@H](Nc2c(NCc3ccc(-c5ccccc5)cc3)c(=O)c2=O)c2ccc(O)c(c2)Oc2cc(O)cc4c2)c2ccc(O)c(c2)-c2c(O)cc(O)cc21    20 µM
COC(=O)[C@H]1NC(=O)[C@H]2NC(=O)[C@H](NC(=O)[C@@H]3NC(=O)[C@H]4NC(=O)[C@@H](Cc5ccc(cc5)Oc5cc3cc(c5O)Oc3ccc(cc3)[C@H]2O)NC(=O)[C@H](Nc2c(NCc3ccc(-c5ccccc5)cc3)c(=O)c2=O)c2ccc(O)c(c2)Oc2cc(O)cc4c2)c2ccc(O)c(c2)-c2c(O)cc(O)cc21    16 µM

Query compound follows.
[ask] For the compound "O=C1N[C@H]2C(=O)N[C@H]3C(=O)N[C@H](C(=O)N[C@H](C(=O)O)c4cc(O)cc(O)c4-c4cc3ccc4O)[C@H](O)c3ccc(c(Cl)c3)Oc3cc2cc(c3O)Oc2ccc(cc2Cl)C[C@H]2NC(=O)[C@H](Nc3c(NCc4ccc(-c5ccccc5)cc4)c(=O)c3=O)c3ccc(O)c(c3)Oc3cc(O)cc(c3)[C@@H]1NC2=O" , give its reported MCC at 72 h.
[reply] 20 µM

---

tested on: Enterococcus faecalis; test: Antibacterial activity against VanB+ Enterococcus faecalis ATCC 51299 by broth microdilution method; type: functional
recordedEndpoint: log10 MIC (log10 of the value in µg/mL)
Hello, just confirming the data are log10 of MIC with units of µg/mL.

COC(=O)[C@H]1NC(=O)[C@H]2NC(=O)[C@H](NC(=O)[C@@H]3NC(=O)[C@H]4NC(=O)[C@@H](Cc5ccc(cc5)Oc5cc3cc(c5O)Oc3ccc(cc3)[C@H]2O)NC(=O)[C@H](Nc2c(NCc3ccc(-c5ccccc5)cc3)c(=O)c2=O)c2ccc(O)c(c2)Oc2cc(O)cc4c2)c2ccc(O)c(c2)-c2c(O)cc(O)cc21    0.60

[ask] For the compound "COC(=O)[C@H]1NC(=O)[C@H]2NC(=O)[C@H](NC(=O)[C@@H]3NC(=O)[C@H]4NC(=O)[C@H](NC(=O)[C@H](Nc5c(NCc6ccc(-c7ccccc7)cc6)c(=O)c5=O)c5ccc(O)c(c5)Oc5cc4cc(O)c5C)[C@H](O)c4ccc(cc4)Oc4cc3cc(c4O)Oc3ccc(cc3)[C@H]2O)c2ccc(O)c(c2)-c2c(O)cc(O)cc21" , give its reported log10 MIC.
[reply] 0.90

[ask] For the compound "COc1c(N[C@H]2C(=O)N[C@@H]3Cc4ccc(c(Cl)c4)Oc4cc5cc(c4O)Oc4ccc(cc4Cl)[C@@H](O)[C@@H]4NC(=O)[C@H](NC(=O)[C@@H]5NC(=O)[C@@H](NC3=O)c3cc(O)cc(c3)Oc3cc2ccc3O)c2ccc(O)c(c2)-c2c(O)cc(O)cc2[C@@H](C(=O)O)NC4=O)c(=O)c1=O" , give its reported log10 MIC.
[reply] 0.90

[ask] For the compound "COC(=O)[C@H]1NC(=O)[C@H]2NC(=O)[C@H](NC(=O)[C@@H]3NC(=O)[C@H]4NC(=O)[C@@H](Cc5ccc(c(Cl)c5)Oc5cc3cc(c5O)Oc3ccc(cc3Cl)[C@H]2O[C@@H]2O[C@H](CO)[C@@H](O)[C@H](O)[C@H]2NC(C)=O)NC(=O)[C@H](N)c2ccc(O)c(c2)Oc2cc(O)cc4c2)c2ccc(O)c(c2)-c2c(O)cc(O)cc21" , give its reported log10 MIC.
[reply] 0.00

[ask] For the compound "COC(=O)[C@H]1NC(=O)[C@H]2NC(=O)[C@H](NC(=O)[C@@H]3NC(=O)[C@H]4NC(=O)[C@@H](Cc5ccc(c(Cl)c5)Oc5cc3cc(c5O)Oc3ccc(cc3Cl)[C@H]2O[C@@H]2O[C@H](CO)[C@@H](O)[C@H](O)[C@H]2NC(C)=O)NC(=O)[C@H](Nc2c(NCc3ccc(-c5ccccc5)cc3)c(=O)c2=O)c2ccc(O)c(c2)Oc2cc(O)cc4c2)c2ccc(O)c(c2)-c2c(O)cc(O)cc21" , give its reported log10 MIC.
[reply] -0.30

[ask] For the compound "COC(=O)[C@H]1NC(=O)[C@H]2NC(=O)[C@H](NC(=O)[C@@H]3NC(=O)[C@H]4NC(=O)[C@@H](Cc5ccc(c(Cl)c5)Oc5cc3cc(c5O)Oc3ccc(cc3Cl)[C@H]2O)NC(=O)[C@H](Nc2c(NCc3ccc(-c5ccccc5)cc3)c(=O)c2=O)c2ccc(O)c(c2)Oc2cc(O)cc4c2)c2ccc(O)c(c2)-c2c(O)cc(O)cc21" , give its reported log10 MIC.
[reply] 2.41
